Just for reference, the RNAGym collection of RNA variant scans (doi:10.7554/elife.80360) is where these values come from.

B1: CPEB3 Ribozyme (parent)
chain: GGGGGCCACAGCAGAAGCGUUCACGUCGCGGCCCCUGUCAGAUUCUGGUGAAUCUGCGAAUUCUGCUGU

Variants of: B1
assay.remarks: self-cleavage, relative activity (ratio to wild type); higher = more cleavage; co-transcriptional
reported.property: self-cleavage
Form: value (number only, do not type unit).

A selection of reference data follows.
G5A U67A
0.953
G11U U61C
0.271
C29G U69G
0.703
C32G C63G
0.233
G11A C27A
0.2

-- ask Dear colleague, I am looking for the recorded self-cleavage of the following variant: C57A G58C
-- reply 0.397

-- ask Dear colleague, I am looking for the recorded self-cleavage of the following variant: G2U G50A
-- reply 0.0766

-- ask Dear colleague, I am looking for the recorded self-cleavage of the following variant: G41U A51C
-- reply 0.588
